The entries below come with measured self-cleavage values attached.
B1: LINE1-mini (parent)
chain: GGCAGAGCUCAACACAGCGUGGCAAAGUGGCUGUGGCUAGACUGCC

# Variants of: B1
# protocol description: self-cleavage, relative activity (ratio to wild type); higher = more cleavage; in vitro, sequencing; the parent is a self-cleaving ribozyme
A bare number is all that is needed in reply.

Some solved cases for reference:
{"chain sequence": "GGCAGAGCUCAACACAGCGAGGCAAAGUGGCUGUGGCUAAACUGCC", "reported": 0.1}
{"chain sequence": "GGCAGAGCUCAACACAGCGUGGCAAAGUGGCUCUGACUAGACUGCC", "reported": 0.03}
{"chain sequence": "GGCAGAGCGCAACACAGCGUGGCAAAGUGGCUGUGGCUCGACUGCC", "reported": 0.05}
{"chain sequence": "GGCAGAGCUCAACACGGCGUGGCAAAGUGGUUGUGGCUAGACUGCC", "reported": 0.03}
{"chain sequence": "GGCAGAACUCAACACAGCGUGGCAAAGUGGCUGUGGCUAGACUACC", "reported": 0.19}
{"chain sequence": "GGCUGAGCUCAACACAGCGUGGGAAAGUGGCUGUGGCUAGACUGCC", "reported": 0.37}
{"chain sequence": "GGCAGAGCUCAUCACAGCGUAGCAAAGUGGCUGUGGCUAGACUGCC", "reported": 0.52}
{"chain sequence": "GGCAGAGCUAAACACAGCGUGGCAAAGUGGCUGUGGCUAGACUGCA", "reported": 0.05}

Entry `GGCAGAGCUCAACACAGCGUAGCAAAGUUGCUGUGGCUAGACUGCC` , self-cleavage reported as 2.19

Entry `GGCAGAGCUCAACACAGCGUGGCACAGUGGGUGUGGCUAGACUGCC` , self-cleavage reported as 0.06

Entry `GGCAGAGCUCAACACAGCGAGGCAAAGUGGCUGUGGUUAGACUGCC` , self-cleavage reported as 0.05

Entry `GGAAGAGCUCAACACAGCGUUGCAAAGUGGCUGUGGCUAGACUGCC` , self-cleavage reported as 0.47

Entry `GGCAGUGCUCAACACAGCGUGGCAAUGUGGCUGUGGCUAGACUGCC` , self-cleavage reported as 0.85
